Test: small molecules captured by biotinylated probe aFGF2 – biochemical, small-molecule microarray, fluorescence 635/667, stem cell growth factor project, primary screen (AID 1067);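 further: measures binding of biotinylated aFGF2 protein to printed compounds on slides; z-score merges feature fluorescence and signal-to-noise across triplicate slides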
Conditions: higher = more signal
reported endpoint: composite z-score
Could you respond with only the numeric value?

Just so you know, measured composite z-score for O=C1NC(=O)C2C1C=CC(C(O)c1ccc([N+](=O)[O-])cc1)N2Nc1ccccn1 (stereo unspecified) came out at -0.0442

The compound `CN(C)CCCNC(=O)[C@@]1(Cc2ccccc2I)c2ccccc2C(=O)N(C2CCCCC2)[C@H]1c1ccc(CO)cc1` showed composite z-score equal to 0.0676

According to the records, this compound C=CCC(OC(C)=O)[C@@H]1[C@@H](N(Cc2cccc3ccccc23)C(=O)c2ccc(-c3ccccc3)cc2)c2cc(OCCCO)ccc2N1C(=O)Cc1ccc2ccccc2c1 (stereo partly specified) displays composite z-score of -0.0171

Summary for this compound, `Cc1ccc(S[C@]2(C(=O)NC(C)C)CC(=O)N(C3CCCCC3)[C@@H]2c2ccc(CO)cc2I)cc1` : composite z-score is -0.0257

For reference, reported composite z-score for CC1CC/C=C\[C@H]2OC34C=CCN(c5ccc(Cl)cc5)C(=O)[C@H]3N(CCCCCCO)C(=O)[C@]4(C)C2C(=O)O1 (stereo partly specified) stands at -0.176

Short answer for `CO[C@H]1O[C@H](CO)[C@@H](OC(=O)Nc2ccc3c(c2)OCO3)[C@H](OC(=O)Nc2ccccc2-c2ccccc2)[C@H]1OC(=O)Nc1ccccc1-c1ccccc1` : composite z-score was 0.007

# composite z-score of `C=CCOC(=O)[C@@H]1[C@H]2C(=O)O[C@H](c3ccccc3)[C@H](c3ccccc3)N2[C@H](c2ccc(OCCOC(=O)[C@H]3C[C@H]4C(=O)NCC(=O)N4[C@H]3c3cccc(OCCO)c3)cc2)[C@@]12C(=O)Nc1ccc(I)cc12` = -0.0383

Per the record, `CC(=O)NCCCC[C@@H]1NC(=O)[C@H]2C[C@@H](C(=O)NCCCCCCNC(=O)CS)[C@@H](c3cccc(OCCO)c3)N2C1=O` has composite z-score of 0.0252

Value of composite z-score reported for the compound `COc1ccc(C#Cc2ccc3c(c2)[C@]2(C(=O)N3)[C@H](C(=O)O)[C@H]3C(=O)O[C@H](c4ccccc4)[C@H](c4ccccc4)N3[C@@H]2c2ccccc2OCCO)cc1` is -0.095

Measured composite z-score of OCCCC1=CC(c2ccc(CN3CCCC3)cc2)N(Cc2cccc(OC(F)(F)F)c2)CC1 (stereo unspecified) : -0.0853

composite z-score reported for this compound `C=CCOC(=O)[C@@H]1[C@H]2C(=O)O[C@H](c3ccccc3)[C@H](c3ccccc3)N2[C@H](c2ccc(OCCOC(=O)[C@H]3C[C@H]4C(=O)N5CCC[C@H]5C(=O)N4[C@H]3c3cccc(OCCO)c3)cc2)[C@@]12C(=O)Nc1ccc(I)cc12` : -0.0538

Field composite z-score (entry `COCCOC(=O)N1C(=O)[C@@]2(c3cc(C#CCC(C(=O)OC)C(=O)OC)ccc31)[C@H](C(=O)Nc1nc3ccccc3s1)[C@H]1C(=O)O[C@H](c3ccccc3)[C@H](c3ccccc3)N1[C@@H]2c1ccc(OCCO)cc1` ) reads 0.224

# composite z-score (compound: `COC(=O)[C@@]1(Cc2ccc(OC)cc2)[C@H]2c3cc(C(=O)N4CCCC4)n(Cc4ccc(Cl)c(C(F)(F)F)c4)c3C[C@H]2CN1C(=O)c1ccccc1` ) is 0.243

Reported composite z-score for CC(C)(C)N1CC=CC23O[C@@H]4C=CCOC(=O)[C@@H]4[C@H]2C(=O)N(CCO)[C@@H]3C1=O (stereo partly specified) was -0.206

composite z-score measured on `O=C(N1CCOCC1)[C@@]1(Cc2ccccc2)COC(c2ccc(OCCCO)cc2)=N1` = 0.0094

Query `COCCCNC(=O)[C@@H]1c2ccccc2C(=O)N(Cc2ccc(OC(F)(F)F)cc2)[C@H]1c1ccc(CO)cc1` yields composite z-score of 0.015

For this compound ( `CCOC(=O)C1=CC[C@@H](c2ccccc2)N(S(=O)(=O)c2ccc(C)cc2)[C@H]1c1ccccc1I` ), measured composite z-score is 0.162

The recorded composite z-score for `COC(=O)C(CC#Cc1ccc2c(c1)[C@]1(C(=O)N2)[C@H](c2ccc(OCCO)cc2)N2[C@H](c3ccccc3)[C@H](c3ccccc3)OC(=O)[C@H]2[C@@H]1C(=O)N1CCCCCCC1)C(=O)OC` is 0.826

So for CC(C)=CCCC(C)=CC(O)C1C=CC2C(=O)NC(=O)C2N1Nc1ccc(Cl)cc1Cl (stereo unspecified) , the logged composite z-score turned out to be 0.234

Kindly note the recorded composite z-score for CC(C)(C)OC(=O)CC[C@]1(C(=O)NCC(O)CO)N=C(c2ccc(OCCCO)cc2)O[C@H]1c1ccccc1N=[N+]=[N-] (stereo partly specified) , which is 0.171

The compound [N-]=[N+]=Nc1ccccc1C[C@@]1(C(=O)NCC(O)CO)N=C(c2ccc(OCCCO)cc2)O[C@@H]1c1ccccc1 (stereo partly specified) showed composite z-score equal to -0.073

response.value for `COC(=O)C(CC#Cc1ccc2c(c1)[C@]1(C(=O)N2)[C@H](C(=O)N2CCc3cc(OC)c(OC)cc3C2)[C@H]2C(=O)O[C@H](c3ccccc3)[C@H](c3ccccc3)N2[C@@H]1c1ccccc1OCCO)C(=O)OC` (field: composite z-score) = -0.0037

# compound `C=CCN1Cc2ccccc2[C@H]2OC(c3ccc(OCCCO)cc3)=N[C@@]2(CCS(=O)(=O)c2ccccc2)C1=O` ; its composite z-score = 0.0814

Value of measured composite z-score for the entry `COCCOC(=O)N1C(=O)[C@@]2(c3cc(C#CCNC(N)=O)ccc31)[C@H](C(=O)Nc1nc3ccccc3s1)[C@H]1C(=O)O[C@H](c3ccccc3)[C@H](c3ccccc3)N1[C@@H]2c1ccccc1OCCO` : -0.0569

Reported composite z-score ( CC(C)=CCCC=C(C)C(O)C1C=CC2C(=O)N(c3ccccc3)C(=O)C2N1Nc1ccc(C#N)cc1 (stereo unspecified) ) = 0.126

Entry `CCOC(=O)C[C@H]1[C@H](OC(=O)Cc2ccc3c(c2)OCO3)[C@@H](NC(=O)c2ccc3ccccc3n2)c2cc(OCCCO)ccc2N1C(=O)Cc1ccc(OC)cc1` — recorded composite z-score = -0.0785

----------
Assay: COS7 lysate on small-molecule microarray, probe aHis, 635 nm (AID 1123);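 further: z-score combines 667nm fluorescence intensity with signal-to-noise per printed compound spot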
Details: COS7 cell lysate, fluorescence, higher = more signal
Provide the reported composite z-score of each item.

// composite z-score value for `COC(=O)[C@@]1(Cc2ccc(F)cc2)[C@H]2c3cc(C(=O)N4CCCC4)n(Cc4cc(F)cc5c4OCOC5)c3C[C@H]2CN1C(=O)c1ccccc1` : -0.203

Briefly, composite z-score measured for `CCCNC(=O)[C@@]1(c2ccc([N+](=O)[O-])cc2)CC(=O)N(C(C)C)[C@@H]1c1ccc(CO)cc1` : 1.7

Note to self: composite z-score recorded for `CC(=O)NCCCC[C@@H]1NC(=O)[C@H]2C[C@@H](C(=O)NCCCCCCNC(=O)CS)[C@@H](c3cccc(OCCO)c3)N2C1=O` was 1.84

Record `CO[C@H]1O[C@H](CO)[C@@H](OC(=O)Nc2ccccc2-c2ccccc2)[C@H](OC(=O)Nc2ccccc2)[C@H]1OC(=O)Nc1ccccc1` . Reported composite z-score: 2.41

Entry `CC(C)NC(=O)[C@@]1(C)c2ccccc2C(=O)N(Cc2ccccc2)[C@H]1c1ccc(CO)cc1` , composite z-score reported as 1.86

For CCCCC(O)C1C=CC2C(=O)N(c3ccccc3)C(=O)C2N1Nc1ccccc1 (stereo not drawn) the compound record lists composite z-score as 2.59

Consider C=CC[C@]1(C(=O)NCC(O)CO)COC(c2ccc(OCCCO)cc2)=N1 (stereo partly drawn) . Its measured composite z-score is 1.56

Lookup result for `O=C(N1CCOCC1)[C@@]1(Cc2ccccc2)COC(c2ccc(OCCCO)cc2)=N1` ; measured composite z-score: 2.7

----------
Target: Streptavidin (Streptomyces avidinii) (UniProt P22629)
Sequence (P22629 whole entry, looked up): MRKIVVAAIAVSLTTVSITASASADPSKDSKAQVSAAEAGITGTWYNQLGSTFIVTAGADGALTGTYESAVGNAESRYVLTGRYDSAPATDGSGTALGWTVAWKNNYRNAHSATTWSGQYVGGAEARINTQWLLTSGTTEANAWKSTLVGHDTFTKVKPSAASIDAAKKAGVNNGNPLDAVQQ
Assay: compounds binding control protein streptavidin – biophysical, small-molecule microarray, 635/667 nm fluorescence, artefact control for SMM compound annotation, primary screen (AID 1147);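 further: signal reflects streptavidin binding to arrayed compounds as a control protein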
Conditions: higher = more signal
reported endpoint: composite z-score
// return a plain number; no unit text

Item `CCOC(=O)C[C@H]1[C@H](OC(=O)c2ccccc2-c2ccccc2)[C@@H](NC(=O)c2ccc3ccccc3c2)c2cc(OCCCO)ccc2N1C(=O)Cc1ccc(OC)cc1` ; assay system Streptavidin (Streptomyces avidinii) (UniProt P22629); composite z-score reported as -0.0096

Result for `CC(C)[Si](C#CCCc1ccccc1)(O[C@H](c1ccccc1)c1cn(Cc2ccccc2)nn1)C(C)C` , tested on Streptavidin (Streptomyces avidinii) (UniProt P22629), composite z-score: 1.61

Record CC(C)=CCCC=C(C)C(O)C1C=CC2C(=O)N(c3ccccc3)C(=O)C2N1Nc1ccc(C#N)cc1 (configuration not stated) / Streptavidin (Streptomyces avidinii) (UniProt P22629), composite z-score recorded as 0.555

For `CCCCCCc1nc(Cc2cc(OC)c(OC)c(OC)c2)cc2c1[Si](C(C)C)(C(C)C)O[C@H]2c1ccccc1` on Streptavidin (Streptomyces avidinii) (UniProt P22629), measured composite z-score was 0.0406

Param item: `COCCOC(=O)N1C(=O)[C@@]2(c3cc(C#CCC(C(=O)OC)C(=O)OC)ccc31)[C@H](C(=O)Nc1nc3ccccc3s1)[C@H]1C(=O)O[C@H](c3ccccc3)[C@H](c3ccccc3)N1[C@@H]2c1ccc(O)cc1` ; param system: Streptavidin (Streptomyces avidinii) (UniProt P22629); output composite z-score: 1.27

Per the reported Streptavidin (Streptomyces avidinii) (UniProt P22629) data, `COCCOC(=O)N1C(=O)[C@@]2(c3cc(C#CCC(C(=O)OC)C(=O)OC)ccc31)[C@H](c1ccc(O)cc1)N1[C@H](c3ccccc3)[C@H](c3ccccc3)OC(=O)[C@H]1[C@@H]2C(=O)Nc1nc2ccccc2s1` has composite z-score of 0.633

composite z-score for Streptavidin (Streptomyces avidinii) (UniProt P22629) with input NC(=O)N1C(=O)C2C(C1=O)C1C=C(CCCO)C2C(c2ccc(CN3CCCC3)cc2)N1Cc1cc2c(cc1Br)OCO2 (configuration not stated) equals -0.0077

Entry `COCCOC(=O)N1C(=O)[C@@]2(c3cc(C#CCCO)ccc31)[C@H](C(N)=O)[C@H]1C(=O)O[C@H](c3ccccc3)[C@H](c3ccccc3)N1[C@@H]2c1ccccc1OCCO` ; assay system Streptavidin (Streptomyces avidinii) (UniProt P22629); composite z-score recorded at 0.612

Record `C=CCOC(=O)[C@@H]1[C@H]2C(=O)O[C@H](c3ccccc3)[C@H](c3ccccc3)N2[C@H](c2ccc(OCCOC(=O)[C@H]3C[C@H]4C(=O)N[C@@H](CCCCN(C)C)C(=O)N4[C@H]3c3ccc(O)cc3)cc2)[C@@]12C(=O)Nc1ccc(I)cc12` / Streptavidin (Streptomyces avidinii) (UniProt P22629), composite z-score recorded as 0.433

# `O=C1O[C@@H](c2ccccc2)[C@@H](c2ccccc2)N2[C@@H](c3ccc(OCCO)cc3)[C@]3(C(=O)Nc4ccc(C#CCCO)cc43)[C@@H](C(=O)O)[C@H]12` with Streptavidin (Streptomyces avidinii) (UniProt P22629): composite z-score is 1.84

Summary: `COC(=O)[C@H](Cc1ccccc1)N1CC2=CCCC=C[C@@H]2[C@H]1[C@H](O)Cc1ccccc1` , Streptavidin (Streptomyces avidinii) (UniProt P22629), composite z-score = 0.916

Param item: `C=C1C(=O)C=C2CN(C(=O)c3ccccc3)[C@@](Cc3ccc(OC)cc3)(C(=O)OC)[C@@H]12` ; param system: Streptavidin (Streptomyces avidinii) (UniProt P22629); output composite z-score: 1.72
